Attribute: IC50
Test system: NO/cGMP signaling
assay.details: cGMP signaling (NO-stimulated cGMP, immunoassay)
Type: cell-based, human
protocol.conditions: concentration for 50% inhibition of effect
Peptide text beside a SMILES is read from it. * marks the point of attachment. Biotin = O=C1N[C@H]2[C@H](CS[C@H]2CCCCC(=O)*)N1
test.readout: IC50

[[record]]
molecule = "C[C@H](N)C(=O)NCC(=O)N[C@@H](Cc1c[nH]c2ccccc12)C(=O)N[C@@H](CCCCN)C(=O)N[C@@H](CC(=O)O)C(=O)N[C@@H](Cc1ccccc1)C(=O)N[C@H](C(=O)N[C@@H](C)C(=O)N[C@@H](Cc1ccc(O)cc1)C(=O)N[C@@H](CCCNC(=N)N)C(=O)O)[C@@H](C)O [compound 37416, AGWKDFTAYR] (H-AGWKDFTAYR-OH)"
result = "~1000 nM"

[[record]]
molecule = "CC[C@H](C)[C@H](N)C(=O)NCC(=O)N[C@@H](Cc1c[nH]c2ccccc12)C(=O)N[C@@H](CCCCN)C(=O)N[C@@H](CC(=O)O)C(=O)N[C@@H](Cc1ccc(O)cc1)C(=O)N[C@H](C(=O)N[C@@H](C)C(=O)N[C@@H](Cc1ccc(O)cc1)C(=O)N[C@@H](CCCNC(=N)N)C(=O)O)[C@@H](C)O [compound 37298, IGWKDYTAYR] (H-IGWKDYTAYR-OH)"
result = "~100 nM"

[[record]]
molecule = "CC[C@H](C)[C@H](NC(=O)[C@@H](N)Cc1c[nH]cn1)C(=O)NCC(=O)N[C@@H](Cc1c[nH]c2ccccc12)C(=O)N[C@@H](CCCCN)C(=O)N[C@@H](CC(=O)O)C(=O)N[C@@H](Cc1ccccc1)C(=O)N[C@H](C(=O)N[C@@H](C)C(=O)N[C@@H](Cc1ccc(O)cc1)C(=O)N[C@@H](CCCNC(=N)N)C(=O)N[C@@H](Cc1c[nH]c2ccccc12)C(=O)N[C@@H](CCCNC(=N)N)C(=O)N[C@@H](CC(C)C)C(=O)N[C@@H](CO)C(=O)O)[C@@H](C)O [C6b, HIGWKDFTAYRWRLS] (H-HIGWKDFTAYRWRLS-OH)"
result = "~100 nM"

[[record]]
molecule = "CC[C@H](C)[C@H](N)C(=O)NCC(=O)N[C@@H](Cc1c[nH]c2ccccc12)C(=O)N[C@@H](CCCCN)C(=O)N[C@@H](CC(N)=O)C(=O)N[C@@H](Cc1ccccc1)C(=O)N[C@H](C(=O)N[C@@H](C)C(=O)N[C@@H](Cc1ccc(O)cc1)C(=O)N[C@@H](CCCNC(=N)N)C(=O)O)[C@@H](C)O [compound 37297, IGWKNFTAYR] (H-IGWKNFTAYR-OH)"
result = "> 10000 nM"

[[record]]
molecule = "CC(=O)N[C@@H](Cc1c[nH]c2ccccc12)C(=O)N[C@@H](CCCCN)C(=O)N[C@@H](CC(=O)O)C(=O)N[C@@H](Cc1ccccc1)C(=O)N[C@H](C(=O)N[C@@H](C)C(=O)N[C@@H](Cc1ccc(O)cc1)C(=O)N[C@@H](CCCNC(=N)N)C(=O)O)[C@@H](C)O [compound 37300, Ac-WKDFTAYR] (Ac-WKDFTAYR-OH)"
result = "~1000 nM"

[[record]]
molecule = "CC[C@H](C)[C@H](NC(=O)CCCC[C@@H]1SC[C@@H]2NC(=O)N[C@@H]21)C(=O)NCC(=O)N[C@@H](Cc1c[nH]c2ccccc12)C(=O)N[C@@H](CCCCN)C(=O)N[C@@H](CC(=O)O)C(=O)N[C@@H](Cc1ccccc1)C(=O)N[C@H](C(=O)N[C@@H](C)C(=O)N[C@@H](Cc1ccc(O)cc1)C(=O)N[C@@H](CCCNC(=N)N)C(=O)O)[C@@H](C)O [C6d, biotin-IGWKDFTAYR] (Biotin-IGWKDFTAYR-OH)"
result = "~100 nM"

[[record]]
molecule = "CC[C@H](C)[C@H](N)C(=O)NCC(=O)N[C@@H](Cc1c[nH]c2ccccc12)C(=O)N[C@@H](CCCCN)C(=O)N[C@@H](CC(=O)O)C(=O)N[C@@H](Cc1ccccc1)C(=O)N[C@@H](C)C(=O)N[C@@H](C)C(=O)N[C@@H](Cc1ccc(O)cc1)C(=O)N[C@@H](CCCNC(=N)N)C(=O)O [compound 37299, IGWKDFAAYR] (H-IGWKDFAAYR-OH)"
result = "> 10000 nM"

[[record]]
molecule = "CC[C@H](C)[C@H](N)C(=O)NCC(=O)N[C@@H](Cc1c[nH]c2ccccc12)C(=O)N[C@@H](Cc1c[nH]cn1)C(=O)N[C@@H](CC(=O)O)C(=O)N[C@@H](Cc1ccccc1)C(=O)N[C@H](C(=O)N[C@@H](C)C(=O)N[C@@H](Cc1ccc(O)cc1)C(=O)N[C@@H](CCCNC(=N)N)C(=O)O)[C@@H](C)O [compound 37414, IGWHDFTAYR] (H-IGWHDFTAYR-OH)"
result = "> 10000 nM"

[[record]]
molecule = "CC[C@H](C)[C@H](N)C(=O)NCC(=O)N[C@@H](Cc1c[nH]c2ccccc12)C(=O)N[C@@H](CCCCN)C(=O)N[C@@H](CCC(=O)O)C(=O)N[C@@H](Cc1ccccc1)C(=O)N[C@H](C(=O)N[C@@H](C)C(=O)N[C@@H](Cc1ccc(O)cc1)C(=O)N[C@@H](CCCNC(=N)N)C(=O)O)[C@@H](C)O [compound 37415, IGWKEFTAYR] (H-IGWKEFTAYR-OH)"
result = "1000 nM"

